Data provenance: a collection of fitness landscapes (doi:10.1016/j.celrep.2020.107928)

B1: Caulobacter ParB omega fusion; a variant is named by its letters at X, in order, B8GW30 (parent)
chain: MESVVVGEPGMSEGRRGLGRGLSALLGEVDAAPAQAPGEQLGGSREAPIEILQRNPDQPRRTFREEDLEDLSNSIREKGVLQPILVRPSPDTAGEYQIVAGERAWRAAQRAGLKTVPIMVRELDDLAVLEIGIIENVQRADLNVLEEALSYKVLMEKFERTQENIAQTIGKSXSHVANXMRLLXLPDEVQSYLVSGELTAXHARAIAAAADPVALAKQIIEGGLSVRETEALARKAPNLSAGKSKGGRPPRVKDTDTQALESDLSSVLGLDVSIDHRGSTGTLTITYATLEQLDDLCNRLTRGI

# Variants of: B1
# test: one-hybrid fitness for binding parS DNA (scaled: cognate 1, non-cognate 0); higher = stronger binding
# details: with parS DNA site
Whole data set: some 81,000 sequences, median “one-hybrid fitness for binding parS DNA” near -0.17, cut for the highest 2% near 0.51. This excerpt belongs to a sample that is enriched for the highest values.
measuredQuantity: one-hybrid fitness for binding parS DNA

FNTL = ≤ 0.2

Measured one-hybrid fitness for binding parS DNA, LPLM : ≤ 0.2

Measured one-hybrid fitness for binding parS DNA, IQCS : ≤ 0.2

Measured one-hybrid fitness for binding parS DNA, RWKP : ≤ 0.2

Measured one-hybrid fitness for binding parS DNA, QKLQ : ≤ 0.2
